- Method: Clearance in mouse liver microsomes at 0.5 uM measured up to 45 mins in presence of NADPH by HPLC-MS/MS analysis
- Assay type: ADME, Microsome
Response field label: string, one of true (1) (CLH strictly below 1 mL/min/g) or false (0).

Exercise: Record OC(CNc1nccc(-c2sc(C3CCNCC3)nc2-c2ccc(F)cc2)n1)c1ccncc1 (configuration not stated) : is its CLH strictly below 1 mL/min/g?
Key: false (0)

Exercise: Strictly below 1 mL/min/g: is that where CLH of CN1CCC(c2nc(-c3ccc(F)c(NS(C)(=O)=O)c3)c(-c3ccnc(NCC4CC4)n3)s2)CC1 sits?
Key: false (0)

Exercise: Determine whether this molecule shows CLH lower than 1 mL/min/g (ties excluded): Fc1ccc(-c2nc(C3CCNCC3)sc2-c2ccnc(Nc3cccnn3)n2)cc1
Key: false (0)

Exercise: Threshold test, CLH < 1 mL/min/g: Cc1cc(Nc2nccc(-c3sc(C4CCNCC4)nc3C3CC3)n2)ccn1
Key: true (1)

Exercise: Find out if reported CLH for Fc1ccc(-c2nc(N3CCCC3)sc2-c2ccnc(Nc3ccc(N4CCNCC4)cc3)n2)cc1 is less than 1 mL/min/g
Key: false (0)

Exercise: For this molecule, is CLH lower than 1 mL/min/g? CN1CCN(c2ccc(Nc3nccc(-c4sc(C5CCNCC5)nc4-c4ccc(F)cc4)n3)cc2)CC1
Key: true (1)

Exercise: Is the reported CLH for Fc1ccc(-c2nc(C3CCNCC3)sc2-c2ccnc(Nc3nncs3)n2)cc1 strictly below 1 mL/min/g?
Key: true (1)

====

- Experimental System: UniProt:W7JX98
- Sequence (W7JX98 whole entry): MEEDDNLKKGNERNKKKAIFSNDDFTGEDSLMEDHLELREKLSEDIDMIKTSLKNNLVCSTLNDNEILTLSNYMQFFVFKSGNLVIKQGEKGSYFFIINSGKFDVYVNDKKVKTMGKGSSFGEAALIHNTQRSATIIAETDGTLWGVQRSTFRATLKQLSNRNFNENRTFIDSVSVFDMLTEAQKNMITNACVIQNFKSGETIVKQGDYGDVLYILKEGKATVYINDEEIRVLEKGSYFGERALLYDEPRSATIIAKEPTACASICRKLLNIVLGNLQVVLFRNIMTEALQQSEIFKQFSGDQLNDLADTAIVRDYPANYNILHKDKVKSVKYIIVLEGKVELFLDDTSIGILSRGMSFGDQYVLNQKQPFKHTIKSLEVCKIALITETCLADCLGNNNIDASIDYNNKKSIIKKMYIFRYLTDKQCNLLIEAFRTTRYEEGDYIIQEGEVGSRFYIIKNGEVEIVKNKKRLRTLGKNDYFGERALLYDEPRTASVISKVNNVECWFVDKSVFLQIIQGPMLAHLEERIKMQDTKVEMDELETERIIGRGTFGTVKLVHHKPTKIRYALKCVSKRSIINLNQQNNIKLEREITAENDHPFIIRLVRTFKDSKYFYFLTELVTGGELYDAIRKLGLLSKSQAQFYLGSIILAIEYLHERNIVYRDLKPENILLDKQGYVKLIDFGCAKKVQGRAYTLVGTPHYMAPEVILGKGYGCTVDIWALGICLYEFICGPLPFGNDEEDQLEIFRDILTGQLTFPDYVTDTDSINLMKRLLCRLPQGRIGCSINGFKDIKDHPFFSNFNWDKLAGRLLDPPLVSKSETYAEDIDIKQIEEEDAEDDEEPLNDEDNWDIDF
- Method: Inhibition of Plasmodium falciparum full length N-terminal His-tagged PKG expressed in Escherichia coli RosettaTM 2(DE3) pLysS cells using FAM-GRTGRRNSI-NH2 as substrate preincubated for 30 mins followed by ATP addition and measured after 30 mins by microfluidic mobility shift assay
Experimental Readout: IC50

Exercise: Which measured IC50 belongs to Cc1cc(Nc2nccc(-c3sc(C4CCNCC4)nc3-c3ccc(F)cc3)n2)on1 , tested on UniProt:W7JX98?
Key: 3 nM

Exercise: Field: IC50 (UniProt:W7JX98). Entry: CN1CCN(c2ccc(Nc3nccc(-c4sc(C5CCNCC5)nc4-c4ccc(F)cc4)n3)cc2)CC1
Key: 0.6 nM

Exercise: # query: IC50 | item Fc1ccc(-c2nc(N3CCCC3)sc2-c2ccnc(Nc3ccc(N4CCNCC4)cc3)n2)cc1 | system: UniProt:W7JX98
Key: 2 nM

Exercise: Observed IC50 on UniProt:W7JX98 for Fc1ccc(-c2nc(C3CCNCC3)sc2-c2ccnc(Nc3cnccn3)n2)cc1 , please.
Key: 5 nM

====

- Experimental System: Voltage-dependent L-type calcium channel subunit alpha-1C (Homo sapiens, UniProt Q13936)
- Sequence (Q13936 whole entry): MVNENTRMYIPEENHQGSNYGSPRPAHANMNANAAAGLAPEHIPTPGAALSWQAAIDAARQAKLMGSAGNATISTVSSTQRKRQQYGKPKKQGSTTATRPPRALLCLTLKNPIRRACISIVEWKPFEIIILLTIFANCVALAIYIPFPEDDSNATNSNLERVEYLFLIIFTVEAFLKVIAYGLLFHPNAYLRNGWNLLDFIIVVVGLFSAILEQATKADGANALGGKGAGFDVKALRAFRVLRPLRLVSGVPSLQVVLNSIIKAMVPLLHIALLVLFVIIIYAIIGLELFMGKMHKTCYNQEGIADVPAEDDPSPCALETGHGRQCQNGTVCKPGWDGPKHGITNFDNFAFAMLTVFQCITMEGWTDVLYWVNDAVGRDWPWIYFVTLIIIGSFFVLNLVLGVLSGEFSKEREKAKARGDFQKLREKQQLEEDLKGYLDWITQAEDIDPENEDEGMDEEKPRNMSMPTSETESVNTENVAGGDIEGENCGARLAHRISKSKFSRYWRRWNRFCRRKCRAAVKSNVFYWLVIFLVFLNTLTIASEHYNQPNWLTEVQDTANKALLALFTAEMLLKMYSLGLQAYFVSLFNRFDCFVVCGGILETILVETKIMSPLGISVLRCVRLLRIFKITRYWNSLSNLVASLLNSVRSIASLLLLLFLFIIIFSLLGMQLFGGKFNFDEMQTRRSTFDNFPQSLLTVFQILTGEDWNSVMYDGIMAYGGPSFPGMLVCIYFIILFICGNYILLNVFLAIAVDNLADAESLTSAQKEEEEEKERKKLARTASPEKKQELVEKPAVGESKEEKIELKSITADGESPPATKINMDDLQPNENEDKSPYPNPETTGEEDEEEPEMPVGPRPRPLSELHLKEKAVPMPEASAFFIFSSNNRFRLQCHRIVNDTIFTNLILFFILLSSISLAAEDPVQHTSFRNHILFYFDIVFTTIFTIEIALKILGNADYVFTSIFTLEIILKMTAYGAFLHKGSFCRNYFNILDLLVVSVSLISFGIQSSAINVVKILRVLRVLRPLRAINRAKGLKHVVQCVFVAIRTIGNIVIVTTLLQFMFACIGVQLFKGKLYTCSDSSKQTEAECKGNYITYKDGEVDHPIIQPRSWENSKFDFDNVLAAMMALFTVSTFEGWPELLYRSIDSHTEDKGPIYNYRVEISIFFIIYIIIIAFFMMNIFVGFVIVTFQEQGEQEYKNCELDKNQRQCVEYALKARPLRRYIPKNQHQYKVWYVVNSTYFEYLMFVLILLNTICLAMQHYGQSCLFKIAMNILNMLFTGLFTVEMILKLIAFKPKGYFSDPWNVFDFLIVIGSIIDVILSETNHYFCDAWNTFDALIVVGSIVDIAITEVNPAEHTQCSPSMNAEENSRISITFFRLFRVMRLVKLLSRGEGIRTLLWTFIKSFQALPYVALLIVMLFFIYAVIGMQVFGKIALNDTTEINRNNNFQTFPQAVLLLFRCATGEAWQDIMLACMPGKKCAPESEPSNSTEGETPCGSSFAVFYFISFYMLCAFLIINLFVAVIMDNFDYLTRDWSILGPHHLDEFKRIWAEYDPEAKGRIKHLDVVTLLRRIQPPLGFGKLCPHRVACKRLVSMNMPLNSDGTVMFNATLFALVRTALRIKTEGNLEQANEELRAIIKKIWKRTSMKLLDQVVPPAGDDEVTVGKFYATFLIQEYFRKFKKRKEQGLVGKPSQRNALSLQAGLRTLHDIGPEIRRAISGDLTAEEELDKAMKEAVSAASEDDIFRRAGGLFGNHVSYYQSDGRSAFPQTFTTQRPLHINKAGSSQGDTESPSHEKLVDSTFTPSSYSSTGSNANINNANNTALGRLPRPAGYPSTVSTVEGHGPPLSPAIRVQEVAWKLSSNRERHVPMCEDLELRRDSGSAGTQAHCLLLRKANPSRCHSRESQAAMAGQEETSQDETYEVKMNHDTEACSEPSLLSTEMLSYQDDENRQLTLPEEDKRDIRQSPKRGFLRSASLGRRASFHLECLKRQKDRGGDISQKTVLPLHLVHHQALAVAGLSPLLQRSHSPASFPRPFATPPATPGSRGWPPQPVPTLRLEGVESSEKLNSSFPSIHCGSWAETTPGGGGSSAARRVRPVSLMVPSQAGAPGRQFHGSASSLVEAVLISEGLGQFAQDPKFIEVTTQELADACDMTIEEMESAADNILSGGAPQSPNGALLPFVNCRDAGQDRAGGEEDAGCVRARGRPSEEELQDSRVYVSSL
- Method: Inhibition of human L-type CaV1.2
Experimental Readout: IC50

Exercise: // map Cc1cc(Nc2nccc(-c3sc(C4CCNCC4)nc3-c3ccc(F)cc3)n2)ccn1 to recorded IC50 (system: Voltage-dependent L-type calcium channel subunit alpha-1C (Homo sapiens, UniProt Q13936))
Key: > 30 µM

====

- Method: Lipophilicity, LogD of compound by reverse phase HPLC analysis
For each of the compounds below, state its chromatographic logD.
Lab note: record just the number, no unit beside it.

Exercise: Please give the measured chromatographic logD for this compound: CCCS(=O)(=O)Nc1nc(-c2ccc(F)cc2)c(-c2ccnc(Nc3ccc(N4CCNCC4)cc3)n2)s1
Key: 2.5

Exercise: For CN(C)CCNc1nccc(-c2sc(C3CCNCC3)nc2-c2ccc(F)cc2)n1 , what is its reported chromatographic logD?
Key: 1.07

Exercise: Param item = Cc1cc(Nc2nccc(-c3sc(C4CCNCC4)nc3C3CC3)n2)ccn1 ; retrieve measured chromatographic logD.
Key: 1.99

Exercise: Record request: chromatographic logD value, item Nc1nc(-c2ccc(F)cc2)c(-c2ccnc(Nc3ccc(N4CCNCC4)cc3)n2)s1
Key: 2.42

Exercise: I have this compound here, OC(CNc1nccc(-c2sc(C3CCNCC3)nc2-c2ccc(F)cc2)n1)c1ccncc1 (configuration not stated) , and I need its recorded chromatographic logD.
Key: 1.79

Exercise: Data request, read-out chromatographic logD, for COCCNc1nccc(-c2sc(C3CCNCC3)nc2-c2ccc(F)cc2)n1
Key: 2.45

Exercise: Any idea what its chromatographic logD is? The compound is O[C@H]1CC[C@H](Nc2nccc(-c3sc(C4CCNCC4)nc3-c3ccc(F)cc3)n2)CC1
Key: 2.12
